- Assayed Target: Tyrosine-protein kinase SYK (Homo sapiens, UniProt P43405)
- Measurement Notes: Inhibition of SYK (unknown origin) using ULight-TK peptide as substrate at 1 uM incubated for 120 mins in presence of ATP by Lance Ultra Kinase assay relative to control
Test Readout: inhibition (%)

Worked examples, 2 molecules total:
C=CC(=O)Nc1cc(CNc2nc(Nc3cc(OC)cc(OC)c3)c(C(N)=O)c3nccn23)ccc1O: 9
C=CC(=O)Nc1cc(F)cc(CNc2nc(Nc3cc(OC)cc(OC)c3)c(C(N)=O)c3nccn23)c1: 0.8

a = C=CC(=O)Nc1cc(CNc2nc(Nc3cc(OC)cc(N4CCOCC4)c3)c(C(N)=O)c3nccn23)ccc1Cl
b = C=CC(=O)Nc1cc(CNc2nc(Nc3ccc(N4CCN(C)CC4)c(OC)c3)c(C(N)=O)c3nccn23)ccc1Cl
Problem: Which is greater in inhibition, the first item a or the second item b ? Refer to your chosen entry by its label in the reply.
Solution: b

====

- Measurement Notes: GSH reactivity of compound at pH 7.4 PBS buffer assessed as half life incubated for 180 min by HPLC-MS analysis
- Format: physicochemical
- Assay Conditions: glutathione (GSH) in PBS buffer
Test Readout: half-life (h)

C=CC(=O)Nc1cc(CNc2nc(Nc3cc(OC)cc(OC)c3)c(C(N)=O)c3nccn23)ccc1F: 1.07

a = C=CC(=O)Nc1cc(CNc2nc(Nc3cc(OC)cc(OC)c3)c(C(N)=O)c3nccn23)ccc1Cl
b = C=CC(=O)Nc1cc(CNc2nc(Nc3cc(OC)cc(OC)c3)c(C(N)=O)c3nccn23)ccn1
c = C=CC(=O)Nc1cccc(CNc2nc(Nc3cc(OC)cc(OC)c3)c(C(N)=O)c3nccn23)c1
Problem: Arrange the 3 compounds by rising half-life, starting with the smallest. To answer, write out the labels according to the requested order.
Solution: b, a, c

====

- Assayed Target: Tyrosine-protein kinase SYK (Homo sapiens, UniProt P43405)
- Measurement Notes: Inhibition of SYK (unknown origin) using ULight-TK peptide as substrate at 1 uM incubated for 120 mins in presence of ATP by Lance Ultra Kinase assay relative to control
Test Readout: inhibition (%)

Worked examples, 3 compounds total:
C=CC(=O)Nc1cc(Cl)cc(CNc2nc(Nc3cc(OC)cc(OC)c3)c(C(N)=O)c3nccn23)c1: 8.2
C=CC(=O)Nc1ccc(Cl)c(CNc2nc(Nc3cc(OC)cc(OC)c3)c(C(N)=O)c3nccn23)c1: 6.8
C=CC(=O)Nc1cc(CNc2nc(Nc3cc(OC)cc(OC)c3)c(C(N)=O)c3nccn23)ccc1Cl: 17.5

A = C=CC(=O)Nc1cc(CNc2nc(Nc3cc(OC)cc(OC)c3)c(C(N)=O)c3nccn23)ccc1C(F)(F)F
B = C=CC(=O)Nc1cc(CNc2nc(Nc3ccc(N4CCOCC4)c(NC(C)=O)c3)c(C(N)=O)c3nccn23)ccc1Cl
C = C=CC(=O)Nc1cc(CNc2nc(Nc3ccc(N4CCOCC4)c(OC)c3)c(C(N)=O)c3nccn23)ccc1Cl
Problem: Rank by inhibition (largest to smallest). To answer, write out the labels according to the requested order.
Solution: C, B, A

I = C=CC(=O)N1CCCc2c(CNc3nc(Nc4cc(OC)cc(OC)c4)c(C(N)=O)c4nccn34)cccc21
II = C=CC(=O)Nc1ccc2c(c1)CN(c1nc(Nc3cc(OC)cc(OC)c3)c(C(N)=O)c3nccn13)CC2
Problem: Returns: the label, I or II , whose recorded inhibition is the lower number. Refer to your chosen entry by its label in the reply.
Solution: I

====

- Assayed Target: Tyrosine-protein kinase SYK (Homo sapiens, UniProt P43405)
- Measurement Notes: Inhibition of SYK (unknown origin) using ULight-TK peptide as substrate at 1 uM incubated for 120 mins in presence of ATP by Lance Ultra Kinase assay relative to control
Test Readout: inhibition (%)

Worked examples, 2 compounds total:
C=CC(=O)Nc1cc(CNc2nc(Nc3cc(OC)cc(OC)c3)c(C(N)=O)c3nccn23)ccc1C: 15.1
COc1cc(Nc2nc(NCc3cccc(NC(=O)CCl)c3)n3ccnc3c2C(N)=O)cc(OC)c1: 20.7

1 = C=CC(=O)Nc1cccc(CNc2nc(Nc3cc(OC)cc(OC)c3)c(C(N)=O)c3nccn23)c1
2 = C=CC(=O)Nc1cccc(C(C)Nc2nc(Nc3cc(OC)cc(OC)c3)c(C(N)=O)c3nccn23)c1 (stereo unspecified)
3 = C=CC(=O)Nc1cc(CNc2nc(Nc3ccc(N4CCC(O)CC4)c(OC)c3)c(C(N)=O)c3nccn23)ccc1Cl
4 = C=CC(=O)Nc1cc(CNc2nc(Nc3cc(OC)cc(OC)c3)c(C(N)=O)c3nccn23)ccn1
Problem: Arrange the 4 compounds by rising inhibition, starting with the smallest. To answer, write out the labels according to the requested order.
Solution: 4, 2, 1, 3
(4: 7%, 2: 10.1%, 1: 15.4%, 3: 47.1%)

Reference for the values: ChEMBL document CHEMBL5365427
